Entry source: PubChem BioAssay AID1963837

- System: 843126-344-R-J1-PDC complex spheroid viability;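 note: spheroids exposed to drugs for seven days before readout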
- methodDescription: Anticancer human tumor 843126-344-R-J1-PDC patient-derived melanoma cell line growth inhibition [POLQ]; active = viability on the fitted dose curve at most 10% of control; inactive = the rest
- appliedConditions: second compound 10 µM; first compound 3.16 µM
- Experimental: Multicellular complex tumor spheroid response to Polymerase (POL) inhibitors (novobiocin, ART-558, RP6685) in combination with a variety of drugs and investigational agents in selected tumor cell lines The POL inhibitors (novobiocin, ART-558, and RP6685) were evaluated both individually and in combination with standard of care and investigational anticancer small molecules within a complex spheroid model of solid tumors. . […]
Outcomes: active, inactive

compound	testedTarget	label
COc1ccc([C@@H](O)c2cc(-c3ncnc4cc(N5CCOCC5)ccc34)c(F)cc2Cl)nn1 + COC1C(OC(N)=O)C(O)C(Oc2ccc3c(O)c(NC(=O)c4ccc(O)c(CC=C(C)C)c4)c(=O)oc3c2C)OC1(C)C	843126-344-R-J1-PDC complex spheroid viability	inactive
COc1cc2cc(C(=O)CCC(=O)O)sc2cc1OC + Cc1cccc(N(C)C(=O)C2C(O)CCN2c2nc(C)cc(C(F)(F)F)c2C#N)c1	843126-344-R-J1-PDC complex spheroid viability	inactive
CCc1cc2c(N3CCc4c(cc(Cn5ccnc5)cc4-c4cn(C)nc4C(F)(F)F)C3=O)cc(C)nc2c(OC)n1 + Nc1ccc(C#CCN(C(=O)Cc2ncc(C(F)(F)F)cc2C(F)(F)F)c2ccc(F)cc2)nn1	843126-344-R-J1-PDC complex spheroid viability	inactive
O=C(c1cc(Cc2n[nH]c(=O)c3ccccc23)ccc1F)N1CCN(C(=O)C2CC2)CC1 + COC1C(OC(N)=O)C(O)C(Oc2ccc3c(O)c(NC(=O)c4ccc(O)c(CC=C(C)C)c4)c(=O)oc3c2C)OC1(C)C	843126-344-R-J1-PDC complex spheroid viability	inactive
CC1COCCN1c1cc(C2(S(C)(=N)=O)CC2)nc(-c2ccnc3[nH]ccc23)n1 (stereo not given) + COC1C(OC(N)=O)C(O)C(Oc2ccc3c(O)c(NC(=O)c4ccc(O)c(CC=C(C)C)c4)c(=O)oc3c2C)OC1(C)C	843126-344-R-J1-PDC complex spheroid viability	inactive
CCc1cc2c(N3CCc4c(cc(Cn5ccnc5)cc4-c4cn(C)nc4C(F)(F)F)C3=O)ccnc2c(OC)n1 + COC1C(OC(N)=O)C(O)C(Oc2ccc3c(O)c(NC(=O)c4ccc(O)c(CC=C(C)C)c4)c(=O)oc3c2C)OC1(C)C	843126-344-R-J1-PDC complex spheroid viability	inactive
O=C(Nc1ccc(O)c(NS(=O)(=O)c2ccc(F)cc2)c1)c1ccc(-c2ccccc2)cc1 + Cc1cccc(N(C)C(=O)C2C(O)CCN2c2nc(C)cc(C(F)(F)F)c2C#N)c1	843126-344-R-J1-PDC complex spheroid viability	inactive
CNCc1ccc(-c2[nH]c3cc(F)cc4c3c2CCNC4=O)cc1 + Cc1cccc(N(C)C(=O)C2C(O)CCN2c2nc(C)cc(C(F)(F)F)c2C#N)c1	843126-344-R-J1-PDC complex spheroid viability	inactive
CC(C)n1c(=O)n(C)c2cnc3cc(F)c(-c4ccc(OCCCN5CCCCC5)nc4)cc3c21 + Cc1cccc(N(C)C(=O)C2C(O)CCN2c2nc(C)cc(C(F)(F)F)c2C#N)c1	843126-344-R-J1-PDC complex spheroid viability	inactive
COc1cccc2c1C(=O)c1c(O)c3c(c(O)c1C2=O)CC(O)(C(=O)CO)CC3OC1CC(N)C(O)C(C)O1 (stereo not given) + Nc1ccc(C#CCN(C(=O)Cc2ncc(C(F)(F)F)cc2C(F)(F)F)c2ccc(F)cc2)nn1	843126-344-R-J1-PDC complex spheroid viability	active
COc1cccc2c1C(=O)c1c(O)c3c(c(O)c1C2=O)CC(O)(C(=O)CO)CC3OC1CC(N)C(O)C(C)O1 (stereo not given) + Cc1cccc(N(C)C(=O)C2C(O)CCN2c2nc(C)cc(C(F)(F)F)c2C#N)c1	843126-344-R-J1-PDC complex spheroid viability	active
COc1cc2cc(C(=O)CCC(=O)O)sc2cc1OC + Nc1ccc(C#CCN(C(=O)Cc2ncc(C(F)(F)F)cc2C(F)(F)F)c2ccc(F)cc2)nn1	843126-344-R-J1-PDC complex spheroid viability	inactive
COc1ccc([C@@H](O)c2cc(-c3ncnc4cc(N5CCOCC5)ccc34)c(F)cc2Cl)nn1 + Nc1ccc(C#CCN(C(=O)Cc2ncc(C(F)(F)F)cc2C(F)(F)F)c2ccc(F)cc2)nn1	843126-344-R-J1-PDC complex spheroid viability	inactive
CCc1cc2c(N3CCc4c(cc(Cn5ccnc5)cc4-c4cn(C)nc4C(F)(F)F)C3=O)cc(C)nc2c(OC)n1 + COC1C(OC(N)=O)C(O)C(Oc2ccc3c(O)c(NC(=O)c4ccc(O)c(CC=C(C)C)c4)c(=O)oc3c2C)OC1(C)C	843126-344-R-J1-PDC complex spheroid viability	inactive
C=CC(=O)N1CCN(c2nc(=O)n(-c3c(C)ccnc3C(C)C)c3nc(-c4c(O)cccc4F)c(F)cc23)C(C)C1 (stereo not given) + Cc1cccc(N(C)C(=O)C2C(O)CCN2c2nc(C)cc(C(F)(F)F)c2C#N)c1	843126-344-R-J1-PDC complex spheroid viability	inactive
C#Cc1c(F)ccc2cc(O)cc(-c3ncc4c(N5CC6CCC(C5)N6)nc(OCC56CCCN5CC(F)C6)nc4c3F)c12 (stereo not given) + COC1C(OC(N)=O)C(O)C(Oc2ccc3c(O)c(NC(=O)c4ccc(O)c(CC=C(C)C)c4)c(=O)oc3c2C)OC1(C)C	843126-344-R-J1-PDC complex spheroid viability	inactive
O=c1[nH]cc(F)c(=O)[nH]1 + COC1C(OC(N)=O)C(O)C(Oc2ccc3c(O)c(NC(=O)c4ccc(O)c(CC=C(C)C)c4)c(=O)oc3c2C)OC1(C)C	843126-344-R-J1-PDC complex spheroid viability	inactive
COc1cc(C2c3cc4c(cc3C(OC3OC5COC(C)OC5C(O)C3O)C3COC(=O)C23)OCO4)cc(OC)c1O (stereo not given) + Nc1ccc(C#CCN(C(=O)Cc2ncc(C(F)(F)F)cc2C(F)(F)F)c2ccc(F)cc2)nn1	843126-344-R-J1-PDC complex spheroid viability	inactive
COc1cc(C2c3cc4c(cc3C(OC3OC5COC(C)OC5C(O)C3O)C3COC(=O)C23)OCO4)cc(OC)c1O (stereo not given) + COC1C(OC(N)=O)C(O)C(Oc2ccc3c(O)c(NC(=O)c4ccc(O)c(CC=C(C)C)c4)c(=O)oc3c2C)OC1(C)C	843126-344-R-J1-PDC complex spheroid viability	inactive
COc1ccc([C@@H](O)c2cc(-c3ncnc4cc(N5CCOCC5)ccc34)c(F)cc2Cl)nn1 + Cc1cccc(N(C)C(=O)C2C(O)CCN2c2nc(C)cc(C(F)(F)F)c2C#N)c1	843126-344-R-J1-PDC complex spheroid viability	inactive
